z-score for assorted compounds
Assay: MM1S myeloma cell viability, profiling panel, resazurin fluorescence, basal, 24 h, PK04 Diversity Set (AID 1174);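 further: MM1S multiple myeloma cell line; test concentration not given here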
Settings: higher = more signal, called active from +8 up or from −8 down
Could you keep your reply to the number by itself?

The measured z-score associated with CCOC(=O)[C@H](Cc1ccccc1)NC(=O)CCC1CC(OC(=O)NCc2ccc3c(c2)OCO3)CC2(CCCC(COC(=O)NCCC(C)C)O2)O1 (stereo partly specified) reads 0.812

The measured z-score associated with COc1ccc(O[C@@H]2[C@H](O)CO[C@H]2C=Cc2ccccc2)cc1 reads -0.0321

The measured z-score associated with CCOC(=O)[C@H](CC(C)C)NC(=O)CCC1CC(OC(=O)NCCc2ccc(F)cc2)CC2(CCCC(COC(=O)NCC(c3ccccc3)c3ccccc3)O2)O1 (stereo partly specified) reads -0.345

The measured z-score associated with CCN1C(=O)[C@H]2[C@H]3[C@H](O)[C@H](O)CC(=O)[C@@H]3CC[C@H]2C1=O reads -0.399

The measured z-score associated with CO[C@H]1COC(=O)CC=C[C@H](C)[C@@H](OC)COC(=O)[C@@H](C)COC(=O)CC=C[C@@H]1C reads 0.277

The measured z-score associated with CCOC(=O)[C@H](Cc1ccccc1)NC(=O)OC1CC(CCC2CC(CC)=NO2)OC2(CCCC(COC(=O)NCCC(C)C)O2)C1 (stereo partly specified) reads 0.264

The measured z-score associated with CCC=CCCC(OC(=O)c1ccc(Br)cc1)C1=CCCCC1=O (stereo unspecified) reads -1.06

The measured z-score associated with CC(C)=CCCC(C)=CCON=C1C[C@@H](O)[C@@H](O)[C@@H]2[C@@H]3C(=O)N(C(C)(C)C)C(=O)[C@@H]3CC[C@H]12 reads -0.274

The measured z-score associated with O=C1C[C@@H](O)[C@@H](O)[C@@H]2[C@@H]3C(=O)N(C[C@@H]4CCCO4)C(=O)[C@@H]3CC[C@@H]12 reads -0.272

The measured z-score associated with CO[C@H]1COC(=O)[C@@H](C)COC(=O)[C@@H](OCc2ccccc2)C=C[C@@H]1C reads 0.687

The measured z-score associated with CC(CCN1CCCCc2nc(C)c(C)cc21)=NOC[C@@H](C)[C@H](OCc1ccccc1)C(C)C reads -0.13

The measured z-score associated with CC(C)CON=C1C[C@@H](O)[C@@H](O)[C@@H]2[C@@H]3C(=O)N(C4CCCCC4)C(=O)[C@@H]3CC[C@H]12 reads -0.143

The measured z-score associated with CCOC(=O)[C@H](Cc1ccccc1)NC(=O)CCC1CC(OC(=O)NCc2cccc3ccccc23)CC2(CCCC(COC(=O)NCC(c3ccccc3)c3ccccc3)O2)O1 (stereo partly specified) reads 0.923

The measured z-score associated with CC(=O)OC[C@H]1O[C@@H](ON=C(C)CCN2CCCc3nc(C)c(C)cc32)[C@H](OC(C)=O)[C@@H](OC(C)=O)[C@@H]1OC(C)=O reads 0.188

The measured z-score associated with CC[C@@H](c1ccccc1)n1c(=O)n2n(c1=O)[C@H]1[C@H](O)[C@@H]3O[C@@H]3C(=O)[C@H]1CC2 reads -2.15

The measured z-score associated with CCCCc1nc2c(c3c1C[C@H](C)OC3)CN(CCOc1ccccc1)CC2 reads 0.422
